System: Uracil-DNA glycosylase
Run Description: Primary qHTS assay for inhibitors of Activation Induced Cytidine Deaminase (AID): UDG Counterscreen signal; note: nearly all actives have a fitted effect of over 65% in size
Study Conditions: FRET deamination/UDG coupled assay, UDG read, 4 h; series mostly up to 115 µM
Hit rate of the full screen: of about 91,000 compounds, about 130 (0.14%) were called active. Another 3% or so got no clear call; they are omitted. Calls come from the whole dose curve; as a rule, active = well fitted inhibition curve with a large enough effect; inconclusive = small, poorly fitted or top-dose-only effect; inactive = flat fitted curve, though single readings scatter. Many of the other results were omitted from the sample, so actives are more common in it than they were.
Response enum: active, inactive

Reference set (5 entries):
compound="CC1CCC(NC(=O)/C=C/c2ccc(C(=O)NC3CC3)cc2)CC1 (stereo not drawn)" assay_target="Uracil-DNA glycosylase" label=inactive
compound=Cn1nc(C(=O)Nc2ccc(C(F)(F)F)cc2)c2ccccc2c1=O assay_target="Uracil-DNA glycosylase" label=inactive
compound=O=C(O)c1cccnc1SC(F)(F)F assay_target="Uracil-DNA glycosylase" label=inactive
compound=CCc1ccc(N(CC)C(=O)CCn2cnc3onc(-c4ccc(F)cc4)c3c2=O)cc1 assay_target="Uracil-DNA glycosylase" label=active
compound=COc1cccc2cc(/C=C(/C#N)c3nc4ccccc4[nH]3)oc12 assay_target="Uracil-DNA glycosylase" label=inactive

Q: Which outcome was entered for the compound `Fc1ccc(/C=N/N=C/c2ccc(F)cc2F)c(F)c1` in this test?
A: inactive

Q: Which outcome was entered for the compound `CCCNc1c(NC(=O)C(C)C)c(=O)oc2ccccc12` in this test?
A: inactive

Q: Which outcome was entered for the compound `Oc1ccc(Cl)cc1C=NCc1ccc(F)cc1Cl` in this test?
A: inactive

Q: Which outcome was entered for the compound `CCc1nnc(SCC(=O)Nc2ccc(Cl)c(Cl)c2)n1-n1cccc1` in this test?
A: inactive

Q: Which outcome was entered for the compound `CCCc1ccc(OC(=O)c2ccc3c(c2)-c2ccccc2C3=O)cc1` in this test?
A: inactive

Q: Which outcome was entered for the compound `CC(C)CNC(=O)CSc1nnc(COc2ccccc2Cl)o1` in this test?
A: inactive

Q: Which outcome was entered for the compound Cc1ccc2c(COC(=O)C3CCCO3)cc(=O)oc2c1C (stereo not drawn) in this test?
A: inactive

====

Test system: Uracil-DNA glycosylase
Run Description: Primary qHTS assay for inhibitors of Activation Induced Cytidine Deaminase (AID): UDG Counterscreen signal; note: nearly all actives have a fitted effect of over 65% in size
Study Conditions: FRET deamination/UDG coupled assay, UDG read, 4 h; series mostly up to 115 µM
The campaign covered roughly 91,000 compounds. About 130 (0.14%) were called active. About 3% were inconclusive and are not listed. The entries come from a sample that favours actives as a whole.
Readout Kind: outcome

The cases that follow already have their outcome on record.
molecule=CN(Cc1ccc(C(C)(C)C)cc1)C(=O)C1CCN(C(=O)/C=C/c2ccccc2)CC1 assay_target="Uracil-DNA glycosylase" obs_value=inactive
molecule="COc1ccc(CNC(=S)NCC(C)N2CCCCC2C)cc1 (stereo unspecified)" assay_target="Uracil-DNA glycosylase" obs_value=inactive
molecule=CNC(=O)c1ccc2c(c1)CCCN2C(=O)c1ccc(Cl)cc1 assay_target="Uracil-DNA glycosylase" obs_value=inactive
molecule=CCN(CC)S(=O)(=O)c1cc(NC(=O)c2n[nH]c3ccccc23)ccc1C assay_target="Uracil-DNA glycosylase" obs_value=inactive
molecule=CCCCCCCc1ccc(-c2ccc(OC)cc2)nc1 assay_target="Uracil-DNA glycosylase" obs_value=inactive

Q: Supply outcome measured with Uracil-DNA glycosylase for `COc1ccc(CN(Cc2cc(=O)oc3cc(C)c(C)cc23)C2CC2)cc1` .
A: inactive

Cited source for all entries: PubChem BioAssay AID1347430
